Hey, just so you know, these numbers are from patent US20050143371A1.

- Target system: Recombinant MAPKAPK2 (Homo sapiens, UniProt P49137)
- Sequence (P49137 whole entry, species assumed): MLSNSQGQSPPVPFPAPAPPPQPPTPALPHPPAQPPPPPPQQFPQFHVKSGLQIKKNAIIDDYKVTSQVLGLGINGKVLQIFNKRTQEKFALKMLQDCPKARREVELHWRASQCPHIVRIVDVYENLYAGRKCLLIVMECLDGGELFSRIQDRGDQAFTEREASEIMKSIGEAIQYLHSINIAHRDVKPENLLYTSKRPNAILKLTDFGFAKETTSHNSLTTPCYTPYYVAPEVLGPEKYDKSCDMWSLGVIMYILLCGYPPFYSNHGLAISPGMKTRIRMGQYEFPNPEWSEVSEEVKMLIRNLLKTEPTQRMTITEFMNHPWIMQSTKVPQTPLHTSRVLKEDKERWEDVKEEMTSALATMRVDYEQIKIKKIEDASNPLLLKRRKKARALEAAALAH
- Assay text: Determination of MK-2 IC50 (HSP-peptide phosphorylation, anion exchange resin capture assay)
- Details: read-out: in vitro MK-2 inhibition IC50
Measured property: IC50

// batch mode: one IC50 value per listed entry
1. COC(=O)c1cccc2c3c([nH]c12)CCNC3=O
2. ON=C1CCCc2c1[nH]c1ccc(C(F)(F)F)cc21

1. < 20 µM
2. < 200 µM

====

- Target system: Recombinant MAPKAPK2 (Homo sapiens)
- Assay text: Determination of MK-2 IC50 (HSP-peptide phosphorylation, anion exchange resin capture assay)
Measured property: IC50 (µM)
Answers are plain numbers, in µM.

Please fill in: IC50 reported for "O/N=C1\CCCc2c1[nH]c1ccc(Br)cc21" = 7.01
